molecular target: full-length beta-Catenin (Uniprot ID P35222) (Homo sapiens (Human)) (UniProt P35222); test: fluorescence polarization competition; 10 nM full-length beta-catenin + 10 nM 5FAM-TCF4(10-53) probe
Sequence (P35222 whole entry): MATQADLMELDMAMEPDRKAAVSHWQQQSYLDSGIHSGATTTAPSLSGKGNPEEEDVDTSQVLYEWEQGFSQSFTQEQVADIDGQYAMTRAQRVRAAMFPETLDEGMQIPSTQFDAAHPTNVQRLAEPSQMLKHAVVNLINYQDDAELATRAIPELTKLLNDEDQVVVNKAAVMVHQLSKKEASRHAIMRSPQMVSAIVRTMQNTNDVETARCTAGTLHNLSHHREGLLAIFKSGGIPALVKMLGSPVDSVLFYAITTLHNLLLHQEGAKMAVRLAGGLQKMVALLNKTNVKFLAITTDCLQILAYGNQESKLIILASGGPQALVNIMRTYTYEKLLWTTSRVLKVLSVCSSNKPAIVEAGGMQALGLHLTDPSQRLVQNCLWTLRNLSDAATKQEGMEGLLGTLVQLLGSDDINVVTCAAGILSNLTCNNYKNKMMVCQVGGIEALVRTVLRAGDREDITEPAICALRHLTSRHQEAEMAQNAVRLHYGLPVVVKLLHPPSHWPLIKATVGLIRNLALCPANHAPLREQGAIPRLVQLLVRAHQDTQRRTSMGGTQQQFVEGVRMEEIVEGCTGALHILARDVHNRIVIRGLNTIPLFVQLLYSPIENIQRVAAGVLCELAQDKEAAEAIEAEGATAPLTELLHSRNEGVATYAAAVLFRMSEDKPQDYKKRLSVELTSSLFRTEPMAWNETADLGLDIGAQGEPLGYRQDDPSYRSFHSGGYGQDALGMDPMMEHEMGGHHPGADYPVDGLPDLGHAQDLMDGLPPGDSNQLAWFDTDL
pIC50: −log10 of the molar value. Starred links: 1 amine or outer side, 2 acyl side, 3 side chain; linkers in the order of their positions; H or OH if unused. Positions of bridges follow the written chain, without caps; N, C: chain ends. Non-standard residues stand in square brackets, D forms with d. Primed or numbered codes have the meaning given here. PyrS2″ = (S)-3-amino-1-((pent-4-en-1-yloxy)carbonyl)pyrrolidine-3-carboxylic acid (stapling residue), C=CCCCOC(=O)N1CC[C@@](N[*:1])(C(=O)[*:2])C1; B5(18) = 2,2-bis(4-pentenyl)glycine (2-amino-2-(pent-4-en-1-yl)hept-6-enoic acid), stitching residue, C=CCCCC(CCCC=C)(N[*:1])C(=O)[*:2]; TfeGA = (S)-2-amino-3-((carboxymethyl)(2,2,2-trifluoroethyl)amino)propanoic acid, O=C([C@H](CN(CC(=O)[*:3])CC(F)(F)F)N[*:1])[*:2]; PyrS2 = (S)-3-amino-1-((pent-4-en-1-yloxy)carbonyl)pyrrolidine-3-carboxylic acid, C=CCCCOC(=O)N1CC[C@@](N[*:1])(C(=O)[*:2])C1; R6 = (R)-2-amino-2-methyloct-7-enoic acid, C=CCCCC[C@@](C)(N[*:1])C(=O)[*:2]; Phe(2-Cl) = N[C@@H](Cc1ccccc1Cl)C(=O)O; Bta = N[C@@H](Cc1csc2ccccc12)C(=O)O; αAllylPro = C=CC[C@@]1(C(=O)O)CCCN1; tBuAla = CC(C)(C)C[C@H](N)C(=O)O; 3Thi = N[C@@H](Cc1ccsc1)C(=O)O
quantity: pIC50

So what's the measured pIC50 for this one? Ac-[αAllylPro]D[tBuAla][B5(18)]DDAAFS[PyrS2″][Phe(2-Cl)][Bta]Q-NH2 (staple 1-4, 4-11) [I-1017]
8.30

(P) Ac-PD[tBuAla][R6]DDAAFL[PyrS2][3Thi][Bta]Q-NH2 (staple 4-11) [I-1988]
(Q) Ac-[αAllylPro]D[tBuAla][B5(18)]D[TfeGA]LAFN[PyrS2″][Phe(2-Cl)][Bta]Q-NH2 (staple 1-4, 4-11) [I-1007]
Given the listed records, identify the one among P and Q with higher pIC50. Reply with the label of the item you choose.
Q
